Test system: Trichophyton rubrum
test name: Antifungal activity against Trichophyton rubrum by NCCLS method
Type: functional

# molecule, relation sign, MIC80 / µg/mL
data = [
    ("CN(Cc1ccccn1)CC(O)(Cn1cncn1)c1ccc(F)cc1F (racemic)", "=", 4),
    ("CN(Cc1ccc2ccccc2n1)CC(O)(Cn1cncn1)c1ccc(F)cc1F (racemic)", "=", 4),
    ("OC(CN1CCN(Cc2nc3ccccc3s2)CC1)(Cn1cncn1)c1ccc(F)cc1F (racemic)", "=", 0.0625),
    ("OC(CN1CCN(Cc2cccs2)CC1)(Cn1cncn1)c1ccc(F)cc1F (racemic)", "=", 4),
    ("OC(CN1CCN(Cc2ccccn2)CC1)(Cn1cncn1)c1ccc(F)cc1F (racemic)", "=", 1),
    ("CN(Cc1nc2ccccc2[nH]1)CC(O)(Cn1cncn1)c1ccc(F)cc1F (racemic)", ">", 64),
    ("OC(CN1CCN(Cc2nc3ccccc3[nH]2)CC1)(Cn1cncn1)c1ccc(F)cc1F (racemic)", "=", 64),
    ("OC(CN1CCN(Cc2nc3ccccc3o2)CC1)(Cn1cncn1)c1ccc(F)cc1F (racemic)", "=", 0.25),
    ("OC(CN1CCN(Cc2ccc3ccccc3n2)CC1)(Cn1cncn1)c1ccc(F)cc1F (racemic)", "=", 0.25),
]
